target-under-test: Bcl-XL (Homo sapiens)
protocol: fluorescence polarization (FP) assay, disruption of the Bcl-XL/BH3 interaction
Assay type: binding
conditions: reactive fragments (SZ, TA); 100 μM per FIG. 22 legend; FP assay
Listed below: % Inhibition Bcl-XL values for each entry.
Field format: number, assumed %, no unit text.

Consider the molecule `Cc1ccc(S(=O)(=O)N=[N+]=[N-])cc1` and give its recorded % Inhibition Bcl-XL.
2.3

Consider the molecule `[N-]=[N+]=NS(=O)(=O)c1ccc(COc2ccccc2[N+](=O)[O-])cc1` and give its recorded % Inhibition Bcl-XL.
3.8

Now turn to the next molecule.
Consider the molecule `Cc1ccccc1S(=O)(=O)N=[N+]=[N-]` and give its recorded % Inhibition Bcl-XL.
1.4

* * *

Listed below: % Inhibition Mcl-1 values for each entry.
target-under-test: Mcl-1 (Homo sapiens, UniProt Q07820)
Sequence (Q07820 whole entry): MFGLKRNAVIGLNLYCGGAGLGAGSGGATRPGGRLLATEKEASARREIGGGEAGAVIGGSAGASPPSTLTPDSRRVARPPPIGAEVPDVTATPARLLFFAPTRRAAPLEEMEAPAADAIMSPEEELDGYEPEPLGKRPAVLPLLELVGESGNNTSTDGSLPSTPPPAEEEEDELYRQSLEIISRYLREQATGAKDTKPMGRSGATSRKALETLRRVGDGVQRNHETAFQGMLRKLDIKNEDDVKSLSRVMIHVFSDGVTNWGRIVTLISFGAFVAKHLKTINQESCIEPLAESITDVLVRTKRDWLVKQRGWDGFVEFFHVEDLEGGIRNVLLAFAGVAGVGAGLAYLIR
protocol: fluorescence polarization (FP) assay, disruption of the Mcl-1/BH3 interaction
Type: binding
conditions: reactive fragments (SZ, TA); 100 μM per FIG. 22 legend; FP assay
Field format: number, assumed %, no unit text.

Consider the compound Cc1ccc(S(=O)(=O)N=[N+]=[N-])cc1 [SZ5] and give its recorded % Inhibition Mcl-1.
1.2

Others:
Consider the compound Cc1ccccc1S(=O)(=O)N=[N+]=[N-] [SZ20] and give its recorded % Inhibition Mcl-1.
6.2

* * *

target-under-test: Bcl-XL (Homo sapiens, UniProt Q07817)
Sequence (Q07817 whole entry): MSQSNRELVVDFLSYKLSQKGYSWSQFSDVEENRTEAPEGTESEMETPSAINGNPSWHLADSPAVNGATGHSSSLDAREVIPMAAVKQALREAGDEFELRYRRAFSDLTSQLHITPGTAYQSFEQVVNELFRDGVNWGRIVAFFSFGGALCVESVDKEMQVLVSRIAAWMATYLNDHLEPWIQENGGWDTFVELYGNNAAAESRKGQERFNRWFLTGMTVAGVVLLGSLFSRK
protocol: fluorescence polarization (FP) assay, disruption of the Bcl-XL/BH3 interaction
Type: binding
conditions: 50 μM acylsulfonamide; disruption of Bcl-XL/BH3 interaction in FP assay; read-out: Percentage Inhibition at 50 μM acylsulfonamide concentrations
Listed below: inhibition at 50 µM values for each entry.
Field format: number, assumed %, no unit text.

Consider the compound `CN(CCc1ccccc1)Cc1ccc(S(=O)(=O)NC(=O)c2ccccc2)cc1` and give its recorded inhibition at 50 µM.
2

Consider the compound `Cc1nc(-c2ccccc2)sc1C(=O)NS(=O)(=O)c1ccc(CN(C)CCc2ccccc2)cc1` and give its recorded inhibition at 50 µM.
7

Consider the compound `Cc1ccc(S(=O)(=O)NC(=O)c2ccc(N3CCC(C)(C)CC3)cc2)cc1` and give its recorded inhibition at 50 µM.
28

Consider the compound `[N-]=[N+]=NS(=O)(=O)c1ccc(CN(CCSc2ccccc2)Cc2ccc(S(=O)(=O)NC(=O)c3ccccc3)cc2)cc1` and give its recorded inhibition at 50 µM.
80

Consider the compound `CC1(C)CCN(c2ccc(C(=O)NS(=O)(=O)c3ccc4ccc(S(=O)(=O)NCCSc5ccccc5)cc4c3)cc2)CC1` and give its recorded inhibition at 50 µM.
76

Others:
Consider the compound `CC(=O)Nc1ccc(S(=O)(=O)NC(=O)c2ccccc2)cc1` and give its recorded inhibition at 50 µM.
0

Consider the compound `Cc1nc(-c2ccccc2)sc1C(=O)NS(=O)(=O)c1ccc(CN2CCN(c3ccccc3)CC2)cc1` and give its recorded inhibition at 50 µM.
6

Consider the compound `CN(CCc1ccccc1)Cc1ccc(S(=O)(=O)NC(=O)c2ccc(N3CCC(C)(C)CC3)cc2)cc1` and give its recorded inhibition at 50 µM.
9

Consider the compound `O=C(NS(=O)(=O)c1ccc(NCCSc2ccccc2)c([N+](=O)[O-])c1)c1ccccc1` and give its recorded inhibition at 50 µM.
14

Consider the compound `Cc1ccc(S(=O)(=O)NC(=O)c2ccccc2)cc1` and give its recorded inhibition at 50 µM.
29

Consider the compound `CC1(C)CCN(c2ccc(C(=O)NS(=O)(=O)c3ccc(CN(CCSc4ccccc4)Cc4ccc(S(=O)(=O)N=[N+]=[N-])cc4)cc3)cc2)CC1` and give its recorded inhibition at 50 µM.
38

* * *

target-under-test: Mcl-1 (Homo sapiens, UniProt Q07820)
protocol: fluorescence polarization (FP) assay, disruption of the Mcl-1/BH3 interaction
Format: binding
conditions: reactive fragments (SZ, TA); 100 μM per FIG. 22 legend; FP assay; read-out: % Inhibition Mcl-1
Listed below: inhibition at 100 µM values for each entry.
Field format: number, assumed %, no unit text.

// fetch inhibition at 100 µM for `CC1(C)CCN(c2ccc(C(=O)O)cc2)CC1` ; system: Mcl-1 (Homo sapiens, UniProt Q07820)
6.8

// fetch inhibition at 100 µM for COc1cc2c(cc1OC)C(c1ccccc1)N(CC(=O)O)CC2 (stereo not drawn) ; system: Mcl-1 (Homo sapiens, UniProt Q07820)
1.5

// fetch inhibition at 100 µM for [N-]=[N+]=NS(=O)(=O)CCN1CCCC2CCCCC21 (stereo not drawn) ; system: Mcl-1 (Homo sapiens, UniProt Q07820)
1.2

// fetch inhibition at 100 µM for `[N-]=[N+]=NS(=O)(=O)c1ccc2ccc(S(=O)(=O)NCCSc3ccccc3)cc2c1` ; system: Mcl-1 (Homo sapiens, UniProt Q07820)
3.4

// fetch inhibition at 100 µM for `Cc1nc(-c2ccccc2)sc1C(=O)O` ; system: Mcl-1 (Homo sapiens, UniProt Q07820)
1.4

// fetch inhibition at 100 µM for `[N-]=[N+]=NS(=O)(=O)c1ccc(CN(CCSc2ccccc2)Cc2c(F)cccc2Cl)cc1` ; system: Mcl-1 (Homo sapiens, UniProt Q07820)
25.1

// fetch inhibition at 100 µM for `COc1cc(OC)cc(C(=O)O)c1` ; system: Mcl-1 (Homo sapiens, UniProt Q07820)
1.3

// fetch inhibition at 100 µM for COc1cc2c(cc1OC)C(c1ccccc1)N(CCS(=O)(=O)N=[N+]=[N-])CC2 (stereo not drawn) ; system: Mcl-1 (Homo sapiens, UniProt Q07820)
13.9

// fetch inhibition at 100 µM for `[N-]=[N+]=NS(=O)(=O)c1ccc(COc2ccc3c(=O)cc(-c4ccccc4)oc3c2)cc1` ; system: Mcl-1 (Homo sapiens, UniProt Q07820)
2.1

// fetch inhibition at 100 µM for [N-]=[N+]=NS(=O)(=O)c1ccc(-c2ccc(C(F)(F)F)cc2)cc1 [SZ16B] ; system: Mcl-1 (Homo sapiens, UniProt Q07820)
1.3

// fetch inhibition at 100 µM for `[N-]=[N+]=NS(=O)(=O)CCN1CCc2ccccc2C1` ; system: Mcl-1 (Homo sapiens, UniProt Q07820)
3.6

// fetch inhibition at 100 µM for `O=C(O)c1ccc(OC(F)(F)F)cc1` ; system: Mcl-1 (Homo sapiens, UniProt Q07820)
3.6

// fetch inhibition at 100 µM for `O=C(O)c1cccc2ccccc12` ; system: Mcl-1 (Homo sapiens, UniProt Q07820)
2.4

// fetch inhibition at 100 µM for `CN(C)c1cccc2c(S(=O)(=O)N=[N+]=[N-])cccc12` ; system: Mcl-1 (Homo sapiens, UniProt Q07820)
49.3

// fetch inhibition at 100 µM for `Cc1ccc(-c2ccc(C(=O)O)cc2)cc1` ; system: Mcl-1 (Homo sapiens, UniProt Q07820)
6.8

// fetch inhibition at 100 µM for `COc1cccc(CN(CCSc2ccccc2)Cc2ccc(S(=O)(=O)N=[N+]=[N-])cc2)c1` ; system: Mcl-1 (Homo sapiens, UniProt Q07820)
4

// fetch inhibition at 100 µM for `[N-]=[N+]=NS(=O)(=O)CCN1CCC(Cc2ccccc2)CC1` ; system: Mcl-1 (Homo sapiens, UniProt Q07820)
2.7

* * *

Listed below: inhibition at 100 µM values for each entry.
target-under-test: UniProt Q07817
protocol: fluorescence polarization (FP) assay, disruption of the Bcl-XL/BH3 interaction
Format: binding
conditions: reactive fragments (SZ, TA); 100 μM per FIG. 22 legend; FP assay; read-out: % Inhibition Bcl-XL
Field format: number, assumed %, no unit text.

Consider the compound `CN(C)c1cccc2c(S(=O)(=O)N=[N+]=[N-])cccc12` and give its recorded inhibition at 100 µM.
1.1

Consider the compound `COc1cccc(CN(CCSc2ccccc2)Cc2ccc(S(=O)(=O)N=[N+]=[N-])cc2)c1` and give its recorded inhibition at 100 µM.
2.6

Consider the compound `[N-]=[N+]=NS(=O)(=O)c1ccc(CN(CCSc2ccccc2)Cc2ccc(S(N)(=O)=O)cc2)cc1` and give its recorded inhibition at 100 µM.
1.9

Others:
Consider the compound `[N-]=[N+]=NS(=O)(=O)c1ccc(CN(CCSc2ccccc2)Cc2c(F)cccc2Cl)cc1` and give its recorded inhibition at 100 µM.
10

* * *

target-under-test: Bcl-XL (Homo sapiens, UniProt Q07817)
protocol: fluorescence polarization (FP) assay, disruption of the Bcl-XL/BH3 interaction
Assay type: binding
conditions: reactive fragments (SZ, TA); 100 μM per FIG. 22 legend; FP assay; read-out: % Inhibition Bcl-XL
assay-metric: inhibition at 100 µM (%)
Field format: number, assumed %, no unit text.

Consider the compound O=C(O)c1ccc(OC(F)(F)F)cc1 [TA8] and give its recorded inhibition at 100 µM.
4

Consider the compound Cc1ccc(-c2ccc(C(=O)O)cc2)cc1 [SK_2_170] and give its recorded inhibition at 100 µM.
7

Consider the compound [N-]=[N+]=NS(=O)(=O)c1ccc(-c2ccc(C(F)(F)F)cc2)cc1 [SZ16B] and give its recorded inhibition at 100 µM.
1.1

Consider the compound [N-]=[N+]=NS(=O)(=O)CCN1CCc2ccccc2C1 [SZ23] and give its recorded inhibition at 100 µM.
3.3

Consider the compound [N-]=[N+]=NS(=O)(=O)c1ccc(COc2ccc3c(=O)cc(-c4ccccc4)oc3c2)cc1 [SZ14] and give its recorded inhibition at 100 µM.
7.9

Others:
Consider the compound [N-]=[N+]=NS(=O)(=O)c1ccc2ccc(S(=O)(=O)NCCSc3ccccc3)cc2c1 [SZ6] and give its recorded inhibition at 100 µM.
4.6

Consider the compound O=C(O)c1ccno1 [TA10] and give its recorded inhibition at 100 µM.
2

Consider the compound COc1cc2c(cc1OC)C(c1ccccc1)N(CCS(=O)(=O)N=[N+]=[N-])CC2 (stereo not drawn) [SZ27] and give its recorded inhibition at 100 µM.
4

Consider the compound CC(=O)Nc1ccc(S(=O)(=O)N=[N+]=[N-])cc1 [SZ3] and give its recorded inhibition at 100 µM.
6.7

Consider the compound CC(C)(C)c1ccc(-c2ccc(S(=O)(=O)N=[N+]=[N-])cc2)cc1 [SZ8] and give its recorded inhibition at 100 µM.
2.2
